reported-endpoint: melting point

Known melting point results, listed for orientation:
Exercise: Sample COc1cc(/C=C/c2ccccc2)cc(OC)c1C(C)C [Compound 8A, 3,5-Dimethoxy-4-isopropyl-trans-stilbene] — what was its melting point?
Solution: 64 to 66 °C

Exercise: Bench note: what melting point did CCc1c(O)cc(/C=C/c2ccccc2)cc1O [Compound 16A-a, 3,5-Dihydroxy-4-ethyl-trans-stilbene] show?
Solution: 143 to 146 °C

Exercise: # melting point lookup, item CCc1c(OC)cc(/C=C/c2ccccc2)cc1OC [Compound 15A-a, 3,5-Dimethoxy-4-ethyl-trans-stilbene]
Solution: 70 to 73 °C

Exercise: // lookup melting point for CCCCCCCCCCCCCCc1c(OC)cc(/C=C/c2ccccc2)cc1OC [Compound 15A-b, 3,5-Dimethoxy-4-myristyl-trans-stilbene]
Solution: 68 to 70 °C

Exercise: Give the measured melting point of COc1cc(/C=C/c2ccccc2)cc(OC)c1Br [Compound 14A, 3,5-Dimethoxy-4-bromo-trans-stilbene] .
Solution: 149 to 152 °C

Attention now shifts to the item below.
Exercise: // query melting point value for entry CCCCCCCCCCCCCCc1c(O)cc(/C=C/c2ccccc2)cc1O [Compound 16A-b, 3,5-Dihydroxy-4-myristyl-trans-stilbene]
Solution: 125 to 128 °C
